// reported activity coefficient for each item listed
Experiment: activity coefficient (dimensionless); of the first substance listed, at infinite dilution; xn = mol fraction of the nth substance listed
Conditions: 348.15 K; 101 kPa; Liquid; Chromatography; x1 = 0

compound: CCCCC [pentane] + CCCC[n+]1ccc(C)cc1.O=S(=O)([N-]S(=O)(=O)C(F)(F)F)C(F)(F)F
activity coefficient: 9.37
//
compound: CCOCC [diethyl ether] + CCCC[n+]1ccc(C)cc1.O=S(=O)([N-]S(=O)(=O)C(F)(F)F)C(F)(F)F
activity coefficient: 2.09
//
compound: CCO [ethanol] + CCCC[n+]1ccc(C)cc1.O=S(=O)([N-]S(=O)(=O)C(F)(F)F)C(F)(F)F
activity coefficient: 1.21
//
compound: COC(C)(C)C [2-methoxy-2-methylpropane] + CCCC[n+]1ccc(C)cc1.O=S(=O)([N-]S(=O)(=O)C(F)(F)F)C(F)(F)F
activity coefficient: 2.1
//
compound: c1ccccc1 [benzene] + CCCC[n+]1ccc(C)cc1.O=S(=O)([N-]S(=O)(=O)C(F)(F)F)C(F)(F)F
activity coefficient: 0.767
//
compound: CCCCCC [hexane] + CCCC[n+]1ccc(C)cc1.O=S(=O)([N-]S(=O)(=O)C(F)(F)F)C(F)(F)F
activity coefficient: 11.4
//
compound: C=CCCCCC [1-heptene] + CCCC[n+]1ccc(C)cc1.O=S(=O)([N-]S(=O)(=O)C(F)(F)F)C(F)(F)F
activity coefficient: 8.24

###

Experiment: activity coefficient (dimensionless); of the first substance listed, at infinite dilution; xn = mol fraction of the nth substance listed
Details: 348.15 K; 101 kPa; Liquid; Chromatography; x1 = 0
// reported activity coefficient for each item listed

compound: Cc1ccccc1 [toluene] + CCCC[n+]1ccc(C)cc1.O=S(=O)([N-]S(=O)(=O)C(F)(F)F)C(F)(F)F
activity coefficient: 1.05
//
compound: C#CCCC [1-pentyne] + CCCC[n+]1ccc(C)cc1.O=S(=O)([N-]S(=O)(=O)C(F)(F)F)C(F)(F)F
activity coefficient: 1.91
//
compound: C=CCCCCCC [oct-1-ene] + CCCC[n+]1ccc(C)cc1.O=S(=O)([N-]S(=O)(=O)C(F)(F)F)C(F)(F)F
activity coefficient: 10.9
//
compound: C#CCCCCC [1-heptyne] + CCCC[n+]1ccc(C)cc1.O=S(=O)([N-]S(=O)(=O)C(F)(F)F)C(F)(F)F
activity coefficient: 3.28

###

Assay: activity coefficient (dimensionless); of the first substance listed, at infinite dilution; xn = mol fraction of the nth substance listed
Settings: 338.15 K; 101 kPa; Liquid; Chromatography; x1 = 0
// reported activity coefficient for each item listed

molecule: Cc1cccc(C)c1 [1,3-dimethylbenzene] + CCCC[n+]1ccc(C)cc1.O=S(=O)([N-]S(=O)(=O)C(F)(F)F)C(F)(F)F
activity coefficient: 1.42
//
molecule: C1CCCCCCC1 [cyclooctane] + CCCC[n+]1ccc(C)cc1.O=S(=O)([N-]S(=O)(=O)C(F)(F)F)C(F)(F)F
activity coefficient: 10.4
//
molecule: CCCO [propan-1-ol] + CCCC[n+]1ccc(C)cc1.O=S(=O)([N-]S(=O)(=O)C(F)(F)F)C(F)(F)F
activity coefficient: 1.53
//
molecule: CO [methanol] + CCCC[n+]1ccc(C)cc1.O=S(=O)([N-]S(=O)(=O)C(F)(F)F)C(F)(F)F
activity coefficient: 1.08

###

// reported activity coefficient for each item listed
Experiment: activity coefficient (dimensionless); of the first substance listed, at infinite dilution; xn = mol fraction of the nth substance listed
Conditions: 328.15 K; 101 kPa; Liquid; Chromatography; x1 = 0

compound: CCCCCCC [heptane] + CCCC[n+]1ccc(C)cc1.O=S(=O)([N-]S(=O)(=O)C(F)(F)F)C(F)(F)F
activity coefficient: 16.6
--
compound: CC(C)=O [acetone] + CCCC[n+]1ccc(C)cc1.O=S(=O)([N-]S(=O)(=O)C(F)(F)F)C(F)(F)F
activity coefficient: 0.423
--
compound: Cc1ccccc1 [toluene] + CCCC[n+]1ccc(C)cc1.O=S(=O)([N-]S(=O)(=O)C(F)(F)F)C(F)(F)F
activity coefficient: 1
--
compound: CCCCCCCCCC [decane] + CCCC[n+]1ccc(C)cc1.O=S(=O)([N-]S(=O)(=O)C(F)(F)F)C(F)(F)F
activity coefficient: 41.1
--
compound: CCO [ethanol] + CCCC[n+]1ccc(C)cc1.O=S(=O)([N-]S(=O)(=O)C(F)(F)F)C(F)(F)F
activity coefficient: 1.43
--
compound: CCCCO [butan-1-ol] + CCCC[n+]1ccc(C)cc1.O=S(=O)([N-]S(=O)(=O)C(F)(F)F)C(F)(F)F
activity coefficient: 2.05
--
compound: C1CCCCCC1 [cycloheptane] + CCCC[n+]1ccc(C)cc1.O=S(=O)([N-]S(=O)(=O)C(F)(F)F)C(F)(F)F
activity coefficient: 8.9

###

Test: activity coefficient (dimensionless); of the first substance listed, at infinite dilution; xn = mol fraction of the nth substance listed
Settings: 328.15 K; 101 kPa; Liquid; Chromatography; x1 = 0
Recorded activity coefficient determines the group label, using group 1 = under 3, group 2 = from 3 up to 7, group 3 = 7 and over

compound: C=CCCCC [hex-1-ene] + CCCC[n+]1ccc(C)cc1.O=S(=O)([N-]S(=O)(=O)C(F)(F)F)C(F)(F)F
assignedLabel: group 2
--
compound: CO [methanol] + CCCC[n+]1ccc(C)cc1.O=S(=O)([N-]S(=O)(=O)C(F)(F)F)C(F)(F)F
assignedLabel: group 1
--
compound: C#CCCCCCC [1-octyne] + CCCC[n+]1ccc(C)cc1.O=S(=O)([N-]S(=O)(=O)C(F)(F)F)C(F)(F)F
assignedLabel: group 2
--
compound: C#CCCCCC [1-heptyne] + CCCC[n+]1ccc(C)cc1.O=S(=O)([N-]S(=O)(=O)C(F)(F)F)C(F)(F)F
assignedLabel: group 2
--
compound: CCCCC [pentane] + CCCC[n+]1ccc(C)cc1.O=S(=O)([N-]S(=O)(=O)C(F)(F)F)C(F)(F)F
assignedLabel: group 3
--
compound: C1CCCC1 [cyclopentane] + CCCC[n+]1ccc(C)cc1.O=S(=O)([N-]S(=O)(=O)C(F)(F)F)C(F)(F)F
assignedLabel: group 2
--
compound: C=CCCCCC [1-heptene] + CCCC[n+]1ccc(C)cc1.O=S(=O)([N-]S(=O)(=O)C(F)(F)F)C(F)(F)F
assignedLabel: group 3
--
compound: O [water] + CCCC[n+]1ccc(C)cc1.O=S(=O)([N-]S(=O)(=O)C(F)(F)F)C(F)(F)F
assignedLabel: group 2
--
compound: CCCCCCCCC [nonane] + CCCC[n+]1ccc(C)cc1.O=S(=O)([N-]S(=O)(=O)C(F)(F)F)C(F)(F)F
assignedLabel: group 3
--
compound: CCc1ccccc1 [ethylbenzene] + CCCC[n+]1ccc(C)cc1.O=S(=O)([N-]S(=O)(=O)C(F)(F)F)C(F)(F)F
assignedLabel: group 1
--
compound: Cc1cccc(C)c1 [1,3-dimethylbenzene] + CCCC[n+]1ccc(C)cc1.O=S(=O)([N-]S(=O)(=O)C(F)(F)F)C(F)(F)F
assignedLabel: group 1
--
compound: C#CCCC [1-pentyne] + CCCC[n+]1ccc(C)cc1.O=S(=O)([N-]S(=O)(=O)C(F)(F)F)C(F)(F)F
assignedLabel: group 1
--
compound: C1CCCCCCC1 [cyclooctane] + CCCC[n+]1ccc(C)cc1.O=S(=O)([N-]S(=O)(=O)C(F)(F)F)C(F)(F)F
assignedLabel: group 3
--
compound: CCCOCCC [dipropyl ether] + CCCC[n+]1ccc(C)cc1.O=S(=O)([N-]S(=O)(=O)C(F)(F)F)C(F)(F)F
assignedLabel: group 2
--
compound: C=CCCC [1-pentene] + CCCC[n+]1ccc(C)cc1.O=S(=O)([N-]S(=O)(=O)C(F)(F)F)C(F)(F)F
assignedLabel: group 2

###

Assay: activity coefficient (dimensionless); of the first substance listed, at infinite dilution; xn = mol fraction of the nth substance listed
Conditions: 318.15 K; 101 kPa; Liquid; Chromatography; x1 = 0

molecule: C#CCCCC [1-hexyne] + CCCC[n+]1ccc(C)cc1.O=S(=O)([N-]S(=O)(=O)C(F)(F)F)C(F)(F)F
activity coefficient: 2.42
//
molecule: Cc1cccc(C)c1 [1,3-dimethylbenzene] + CCCC[n+]1ccc(C)cc1.O=S(=O)([N-]S(=O)(=O)C(F)(F)F)C(F)(F)F
activity coefficient: 1.35
//
molecule: O [water] + CCCC[n+]1ccc(C)cc1.O=S(=O)([N-]S(=O)(=O)C(F)(F)F)C(F)(F)F
activity coefficient: 3.65
//
molecule: CO [methanol] + CCCC[n+]1ccc(C)cc1.O=S(=O)([N-]S(=O)(=O)C(F)(F)F)C(F)(F)F
activity coefficient: 1.27
//
molecule: CC(C)=O [acetone] + CCCC[n+]1ccc(C)cc1.O=S(=O)([N-]S(=O)(=O)C(F)(F)F)C(F)(F)F
activity coefficient: 0.415
//
molecule: Cc1ccccc1 [toluene] + CCCC[n+]1ccc(C)cc1.O=S(=O)([N-]S(=O)(=O)C(F)(F)F)C(F)(F)F
activity coefficient: 0.973
//
molecule: C1CCCCC1 [cyclohexane] + CCCC[n+]1ccc(C)cc1.O=S(=O)([N-]S(=O)(=O)C(F)(F)F)C(F)(F)F
activity coefficient: 7.76
